- Tested on: HNSC
- assay: growth inhibition (% activity, log2 RLU normalised to DMSO / staurosporine); higher = more growth inhibition
- run parameters: 33 µM
Listing of recorded growth inhibition by entry.
property measured: growth inhibition (%)

>>> result("CC1CCc2cc(F)cc3c(=O)c(C(=O)O)cn1c23 (stereo unspecified)")
0.388
>>> result("Nc1ncn([C@H]2C[C@H](O)[C@@H](CO)O2)c(=O)n1")
27.6
>>> result("CC(C(=O)O)c1ccc2c(c1)[nH]c1ccc(Cl)cc12 (stereo unspecified)")
-2.15
>>> result("COc1cc2/c(=N/c3ccc(Br)cc3F)nc[nH]c2cc1OCC1CCN(C)CC1")
9.55
>>> result("C=C(c1ccc(C(=O)O)cc1)c1cc2c(cc1C)C(C)(C)CCC2(C)C")
14.6
>>> result("Clc1ccc2c(c1)CCc1cccnc1C2=C1CCNCC1")
0.109

====

Listing of recorded growth inhibition by entry.
- Tested on: SUDIPGVI (diffuse intrinsic pontine glioma line)
- assay: growth inhibition (% activity, log2 RLU normalised to DMSO / staurosporine); higher = more growth inhibition
- run parameters: 33 µM
property measured: growth inhibition (%)

>>> result("O=C(O)CCNC(=O)c1ccccc1")
1.57
>>> result("CC[N+](CC)(CC)CCOc1cccc(OCC[N+](CC)(CC)CC)c1OCC[N+](CC)(CC)CC")
3.43
>>> result("CN(C)c1cc(NC(=O)CNC(C)(C)C)c(O)c2c1CC1CC3C(N(C)C)C(=O)C(C(N)=O)=C(O)C3(O)C(=O)C1=C2O (stereo unspecified)")
-1.89
>>> result("CN1C2CCCC1CC(NC(=O)c1nn(C)c3ccccc13)C2 (stereo unspecified)")
1.95
>>> result("Oc1ncnc2[nH]ncc12")
-6.47
>>> result("O=C(O)CCCC[C@@H]1SC[C@@H]2NC(=O)N[C@@H]21")
1.25
>>> result("CCN(CC)CCOc1ccc(C(=C(Cl)c2ccccc2)c2ccccc2)cc1")
1.14
>>> result("COc1ccc(CC(C)NCC(O)c2ccc(O)c(NC=O)c2)cc1 (stereo unspecified)")
1.33
>>> result("NS(=O)(=O)c1cc2c(cc1Cl)N=C(CSCc1ccccc1)NS2(=O)=O")
-6.04
>>> result("CCOC(=O)N1CCC(=C2c3ccc(Cl)cc3CCc3cccnc32)CC1")
1.47
>>> result("CCCCCCOC(=O)NC(=N)c1ccc(NCc2nc3cc(C(=O)N(CCC(=O)OCC)c4ccccn4)ccc3n2C)cc1")
2.67
>>> result("Cc1cccc(N(C)C(=S)Oc2ccc3ccccc3c2)c1")
-3.26
>>> result("Cc1ccc(C)c(OCCCC(C)(C)C(=O)O)c1")
0.864
>>> result("Cc1ccc2c(Cl)cc(Cl)c(O)c2n1")
5.64
>>> result("CC(=O)O[C@@]12CO[C@@H]1C[C@H](O)[C@@]1(C)C(=O)[C@H](O)C3=C(C)[C@@H](OC(=O)[C@H](O)[C@@H](NC(=O)OC(C)(C)C)c4ccccc4)C[C@@](O)([C@@H](OC(=O)c4ccccc4)[C@H]21)C3(C)C")
8.93
>>> result("CCC(=O)OCC(=O)[C@@]1(OC(=O)CC)[C@@H](C)C[C@H]2[C@@H]3CCC4=CC(=O)C=C[C@]4(C)[C@@]3(F)[C@@H](O)C[C@@]21C")
0.781
>>> result("C[C@@H](CN1CC(=O)NC(=O)C1)N1CC(=O)NC(=O)C1")
-1.35
>>> result("CCOC(=O)c1c(C)n(C)c2ccc(O)cc12")
-0.0936
>>> result("O=C(O)c1cc(=O)c2c(OCC(O)COc3cccc4oc(C(=O)O)cc(=O)c34)cccc2o1")
-0.328
>>> result("C#Cc1cccc(Nc2ncnc3cc(OCCOC)c(OCCOC)cc23)c1")
3.91
>>> result("Cn1ccnc1S")
-1.6
>>> result("OCCOCCN1CCN(C2=Nc3ccccc3Sc3ccccc32)CC1")
-0.798
>>> result("N=c1nc(N2CCCCC2)cc(N)n1O")
1.35
>>> result("COC1C(O)CC(=O)OC(C)CC=CC=CC(OC2CCC(N(C)C)C(C)O2)C(C)CC(CC=O)C1OC1OC(C)C(OC2CC(C)(O)C(O)C(C)O2)C(N(C)C)C1O (stereo unspecified)")
1.86
>>> result("NC(=O)CC[C@H](N)C(=O)O")
1.4
>>> result("N=C(N)c1ccc2cc(OC(=O)c3ccc(N=C(N)N)cc3)ccc2c1")
0.556
>>> result("COc1ccc(/C=C/C(=O)Nc2ccccc2C(=O)O)cc1OC")
-5.28
>>> result("Cc1ccc(C(=O)C(C)CN2CCCCC2)cc1 (stereo unspecified)")
-0.166
>>> result("CC1=C(CC(=O)O)c2cc(F)ccc2/C1=C\\c1ccc([S+](C)[O-])cc1 (stereo unspecified)")
2.02
>>> result("CC[C@@H]([C@H](C)O)n1ncn(-c2ccc(N3CCN(c4ccc(OC[C@@H]5CO[C@@](Cn6cncn6)(c6ccc(F)cc6F)C5)cc4)CC3)cc2)c1=O")
-1.64
>>> result("CN(C)C(=O)C(CCN1CCC(O)(c2ccc(Cl)cc2)CC1)(c1ccccc1)c1ccccc1")
3.43
>>> result("Nc1nc(=O)n([C@@H]2CS[C@H](CO)O2)cc1F")
2.25
>>> result("CC[C@@H](CO)NCCN[C@@H](CC)CO")
-1.42
>>> result("COC(=O)C1=C(C)NC(C)=C(C(=O)OC2CCCN(Cc3ccccc3)C2)C1c1cccc([N+](=O)[O-])c1 (stereo unspecified)")
-1.31
>>> result("O=C(O)c1ccccc1")
-2.88
>>> result("Cc1cnc(C(=O)O)c[n+]1[O-]")
1.26
>>> result("C[C@@H]1CN(c2c(F)c(N)c3c(=O)c(C(=O)O)cn(C4CC4)c3c2F)C[C@H](C)N1")
-0.838
>>> result("CCCCc1ncc(/C=C(\\Cc2cccs2)C(=O)O)n1Cc1ccc(C(=O)O)cc1")
0.0226
>>> result("COc1cc(Nc2c(C#N)cnc3cc(OCCCN4CCN(C)CC4)c(OC)cc23)c(Cl)cc1Cl")
8.4
>>> result("N#CC1(c2ccc(NC(=O)c3cccnc3NCc3ccncc3)cc2)CCCC1")
-1.37
>>> result("Nc1ccc(/N=N/c2ccccc2)c(N)n1")
-4.45

Reference source: the supplement of paper PMC8253809
